Test: qHTS Assay for Lipid Storage Modulators in Drosophila S3 Cells; further: potency means the concentration at half of the fitted maximal effect
Conditions: BODIPY lipid droplet fluorescence, 18-24 h, cells fed with added oleic acid; series mostly up to 46.1 µM
Text: NIH Molecular Libraries Probe Production Centers Network [MLPCN] NIH Chemical Genomics Center [NCGC] […] Triacsin C (Sigma-Aldrich T-4540), an inhibitor of long-chain fatty acyl CoA synthetase that blocks synthesis of triglycerides, was used as a positive control for lipid under-storage. […] Fluorescence was detected by excitation of the fluorophores with a 488-nm laser on an Acumen Explorer (TTP Lab Tech). […] Cells were detected using channel 3 (575-640 nm) with 5-um width and 100-um depth filters. […]
Hit rate of the full screen: of about 320,000 compounds, about 2,100 (0.66%) were called active. Inconclusive results (about 53%) are left out. The sample as a whole holds a higher share of actives than the screen did.
assayMetric: Potency

Solved cases below.
{"smilesStr": "CC(=O)Nc1cccc(C(=O)/C=C/c2ccc[nH]2)c1", "Potency": "inactive"}
{"smilesStr": "CCc1cc(C(=O)N2CCN(S(=O)(=O)c3cc(C)ccc3C)CC2)sc1C", "Potency": "20.6 µM (active)"}
{"smilesStr": "Cc1ccc(C)c(S(=O)(=O)N2CCN(C(=O)c3ccc(C)s3)CC2)c1", "Potency": "inactive"}
{"smilesStr": "CCOC(=O)COc1ccc(S(=O)(=O)NCc2ccncc2)cc1", "Potency": "inactive"}

Challenge: // returns reported Potency for input Cc1cccc(C(=O)N/N=C/c2ccncc2)c1
Response given: inactive

Challenge: And the next one, CC(=O)Nc1cccc(C(=O)/C=C/c2ccc(/C=C/C(=O)c3cccc(NC(C)=O)c3)cc2)c1 ?
Response given: 8.2 µM (active)

Challenge: And the next one, Cc1ccccc1-n1nc(C)c2cc(C(=O)N3CCN(S(=O)(=O)c4ccc(Cl)cc4)CC3)sc21 ?
Response given: inactive

Challenge: And the next one, CCOC(=O)N1CCN(S(=O)(=O)c2ccc(Cl)cc2)CC1 ?
Response given: inactive

Challenge: And the next one, CCc1cc(C(=O)N2CCN(S(=O)(=O)c3ccc(Cl)cc3)CC2)sc1C ?
Response given: 11.6 µM (active)

Challenge: And the next one, Cc1ccc(NS(=O)(=O)c2cc(C(=O)N3CCN(C)CC3)ccc2C)cc1C ?
Response given: inactive

###

assay: qHTS Assay for Lipid Storage Modulators in Drosophila S3 Cells; conditions: BODIPY lipid droplet fluorescence, 18-24 h, cells fed with added oleic acid; series mostly up to 46.1 µM
The campaign covered roughly 320,000 compounds. About 2,100 (0.66%) were called active. Not shown: some 53% with an inconclusive outcome. Calls follow the shape of the dose curve; as a rule, active = well fitted inhibition curve with a large enough effect in the signal ratio, with a control signal flat (not every such curve was filed as active); inconclusive = small, poorly fitted or top-dose-only effect, or effect the other way, or a change in a side signal; inactive = flat fitted curve, though single readings scatter; the % refers to the signal ratio. This excerpt belongs to a sample that is enriched for actives.
Parameter call: string, one of active, inactive

{"molecule": "CCO[C@H]1OC(C(=O)N2CCN(Cc3ccccc3)CC2)=C[C@@H](C2CCCCC2)[C@@H]1CCCO", "label": "active"}
{"molecule": "CCO[C@@H]1OC(C(=O)N2CCCCCCC2)=C[C@H](C2CCCCC2)[C@H]1CCCO", "label": "inactive"}
{"molecule": "CCC(C)(C)NC(=O)CN(C(=O)c1snc(C(N)=O)c1N)c1ccc2c(c1)OCCO2", "label": "inactive"}
{"molecule": "CCO[C@@H]1OC(C(=O)N2CCN(Cc3ccccc3)CC2)=C[C@H](C2CC2)[C@H]1CCCO", "label": "inactive"}

Next molecule, please.
Challenge: Please share the test call associated with CC(CCc1ccccc1)NC(=O)CN1CCN(c2ccc(O)cc2)CC1 (stereo not given) .
Response given: inactive
